target: Kappa-type opioid receptor (Homo sapiens, UniProt P41145); experiment: Agonist activity at human kappa opioid receptor expressed in CHO cells by [35S]GTPgammaS binding assay
Sequence (P41145 whole entry): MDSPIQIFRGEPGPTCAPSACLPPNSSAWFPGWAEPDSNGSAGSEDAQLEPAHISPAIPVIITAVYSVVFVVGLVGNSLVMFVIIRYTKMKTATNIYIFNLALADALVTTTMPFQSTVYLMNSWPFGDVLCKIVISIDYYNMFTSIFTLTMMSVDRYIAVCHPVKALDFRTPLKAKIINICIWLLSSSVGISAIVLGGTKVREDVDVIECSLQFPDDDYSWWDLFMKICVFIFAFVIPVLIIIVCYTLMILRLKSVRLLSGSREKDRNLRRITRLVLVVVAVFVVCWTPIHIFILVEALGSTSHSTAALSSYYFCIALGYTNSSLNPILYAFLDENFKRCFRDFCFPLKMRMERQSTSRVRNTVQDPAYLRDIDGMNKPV
Endpoint name: pEC50
Entry type: numeric. Quantity: pEC50, the -log10 of concentration in molar units.

Asked: Quick check: pEC50 of O=C(NCCc1ccccc1)C1=N[C@@]23CC[C@]1(O)C1Oc4c(O)ccc5c4C12CCN(CC1CC1)C3C5 (some centres not stated) ?
Given back: 9.74

Asked: // same read-out, input: O=C(NCc1ccccc1)C1=N[C@@]23CC[C@]1(O)C1Oc4c(O)ccc5c4C12CCN(CC1CC1)C3C5 (some centres not stated)
Given back: 10.48

---

biological target: Delta-type opioid receptor (Mus musculus, UniProt P32300); test: Displacement of [3H]DPDPE from delta opioid receptor in mouse brain membranes without cerebellum
Sequence (P32300 whole entry): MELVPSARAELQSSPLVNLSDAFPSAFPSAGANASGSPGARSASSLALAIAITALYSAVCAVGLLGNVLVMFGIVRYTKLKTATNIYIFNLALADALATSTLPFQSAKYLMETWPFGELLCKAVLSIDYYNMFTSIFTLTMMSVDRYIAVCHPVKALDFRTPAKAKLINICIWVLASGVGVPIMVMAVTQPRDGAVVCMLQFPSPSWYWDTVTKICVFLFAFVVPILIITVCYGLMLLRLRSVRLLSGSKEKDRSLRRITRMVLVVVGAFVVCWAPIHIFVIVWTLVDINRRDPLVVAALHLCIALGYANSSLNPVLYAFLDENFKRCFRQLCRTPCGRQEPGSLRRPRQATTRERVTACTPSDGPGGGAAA
Labelling field: enter rule met if recorded Ki is less than 600 pM. Enter rule not met if it equals or exceeds that cut-off.

Asked: Report whether reported Ki is lower than 600 pM (strictly) for O=C1C[C@H]2N(CN1Cc1ccccc1)[C@@]13CC[C@]2(O)C2Oc4c(O)ccc5c4C21CCN(CC1CC1)C3C5 (stereo partly specified)
Given back: rule not met

Asked: // same read-out, input: O=C(Nc1ccccc1)C1=N[C@@]23CC[C@]1(O)C1Oc4c(O)ccc5c4C12CCN(CC1CC1)C3C5 (stereo partly specified)
Given back: rule met

Asked: // same read-out, input: O=C(NCCc1ccccc1)C1=N[C@@]23CC[C@]1(O)C1Oc4c(O)ccc5c4C12CCN(CC1CC1)C3C5 (stereo partly specified)
Given back: rule not met

Asked: // same read-out, input: O=C(NCc1ccccc1)[C@H]1N[C@@]23CC[C@]1(O)C1Oc4c(O)ccc5c4C12CCN(CC1CC1)C3C5 (stereo partly specified)
Given back: rule not met

Asked: // same read-out, input: O=C(C[C@H]1N[C@@]23CC[C@]1(O)C1Oc4c(O)ccc5c4C12CCN(CC1CC1)C3C5)NCc1ccccc1 (stereo partly specified)
Given back: rule met

---

biological target: Delta-type opioid receptor (Mus musculus); experiment: Displacement of [3H]DPDPE from delta opioid receptor in mouse brain membranes without cerebellum
Endpoint name: Ki

Asked: Find Ki (Delta-type opioid receptor (Mus musculus)) for the entry O=C(C[C@@H]1N[C@@]23CC[C@]1(O)C1Oc4c(O)ccc5c4C12CCN(CC1CC1)C3C5)NCc1ccccc1 (some centres undefined)
Given back: 1.12 nM

Asked: // same read-out, input: O=C1C[C@@H]2N(CN1Cc1ccccc1)[C@@]13CC[C@]2(O)C2Oc4c(O)ccc5c4C21CCN(CC1CC1)C3C5 (some centres undefined)
Given back: 3.83 nM

Asked: // same read-out, input: Oc1ccc2c3c1OC1C34CCN(CC3CC3)C(C2)[C@]42CC[C@@]1(O)C=N2 (some centres undefined)
Given back: 6.12 nM

Asked: // same read-out, input: O=C(NCc1ccccc1)[C@@H]1N[C@@]23CC[C@]1(O)C1Oc4c(O)ccc5c4C12CCN(CC1CC1)C3C5 (some centres undefined)
Given back: 0.45 nM

---

assay: Selectivity ratio of Ki for mu opioid receptor in mouse brain membranes without cerebellum to Ki for kappa opioid receptor in guinea pig cerebellum; assay type: cell membranes
Label rule, in plain words: Ratio Ki of 1 and up is 1, under 1 is -1.

Asked: Check if Ratio Ki >= 1 (inclusive). Item: O=C1C[C@H]2N(CN1Cc1ccccc1)[C@@]13CC[C@]2(O)C2Oc4c(O)ccc5c4C21CCN(CC1CC1)C3C5 (stereo not given in full)
Given back: -1

Asked: // same read-out, input: Oc1ccc2c3c1OC1C34CCN(CC3CC3)C(C2)[C@]42CC[C@@]1(O)C=N2 (stereo not given in full)
Given back: -1

Asked: // same read-out, input: O=C(NCCc1ccccc1)C1=N[C@@]23CC[C@]1(O)C1Oc4c(O)ccc5c4C12CCN(CC1CC1)C3C5 (stereo not given in full)
Given back: 1

Asked: // same read-out, input: O=C(C[C@H]1N[C@@]23CC[C@]1(O)C1Oc4c(O)ccc5c4C12CCN(CC1CC1)C3C5)NCc1ccccc1 (stereo not given in full)
Given back: 1

Asked: // same read-out, input: O=C1C[C@@H]2N(CN1Cc1ccccc1)[C@@]13CC[C@]2(O)C2Oc4c(O)ccc5c4C21CCN(CC1CC1)C3C5 (stereo not given in full)
Given back: -1

Asked: // same read-out, input: O=C(NCc1ccccc1)C1=N[C@@]23CC[C@]1(O)C1Oc4c(O)ccc5c4C12CCN(CC1CC1)C3C5 (stereo not given in full)
Given back: 1

Asked: // same read-out, input: O=C(Nc1ccccc1)C1=N[C@@]23CC[C@]1(O)C1Oc4c(O)ccc5c4C12CCN(CC1CC1)C3C5 (stereo not given in full)
Given back: -1

Asked: // same read-out, input: O=C(NCc1ccccc1)[C@H]1N[C@@]23CC[C@]1(O)C1Oc4c(O)ccc5c4C12CCN(CC1CC1)C3C5 (stereo not given in full)
Given back: 1

Asked: // same read-out, input: O=C(C[C@@H]1N[C@@]23CC[C@]1(O)C1Oc4c(O)ccc5c4C12CCN(CC1CC1)C3C5)NCc1ccccc1 (stereo not given in full)
Given back: 1

Asked: // same read-out, input: O=C(NCc1ccccc1)[C@@H]1N[C@@]23CC[C@]1(O)C1Oc4c(O)ccc5c4C12CCN(CC1CC1)C3C5 (stereo not given in full)
Given back: -1

Cited source for all entries: ChEMBL document CHEMBL3351376
